measured-on: Matrix metalloproteinase-9 (Homo sapiens, UniProt P14780)
Sequence (P14780 whole entry): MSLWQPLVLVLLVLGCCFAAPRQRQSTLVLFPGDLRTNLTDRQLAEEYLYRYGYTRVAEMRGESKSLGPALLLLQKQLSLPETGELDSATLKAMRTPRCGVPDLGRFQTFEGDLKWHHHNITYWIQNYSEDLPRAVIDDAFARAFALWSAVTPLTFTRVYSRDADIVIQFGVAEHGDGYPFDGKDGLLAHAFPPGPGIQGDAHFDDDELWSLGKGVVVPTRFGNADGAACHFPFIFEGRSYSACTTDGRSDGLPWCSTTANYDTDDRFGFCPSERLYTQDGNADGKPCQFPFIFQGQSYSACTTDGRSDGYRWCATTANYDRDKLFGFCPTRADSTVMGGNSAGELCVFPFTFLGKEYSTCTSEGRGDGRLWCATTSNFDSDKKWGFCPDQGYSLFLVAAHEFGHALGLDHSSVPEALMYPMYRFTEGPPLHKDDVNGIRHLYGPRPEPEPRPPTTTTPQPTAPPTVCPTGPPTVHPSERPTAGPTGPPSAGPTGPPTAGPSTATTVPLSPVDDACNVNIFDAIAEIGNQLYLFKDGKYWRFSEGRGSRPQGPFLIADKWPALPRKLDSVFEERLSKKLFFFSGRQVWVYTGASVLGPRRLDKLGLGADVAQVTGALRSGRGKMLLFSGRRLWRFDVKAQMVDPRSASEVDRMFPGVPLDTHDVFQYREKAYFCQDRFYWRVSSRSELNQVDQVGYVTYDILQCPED
assay-method-text: Inhibition of human full length MMP9 using Mca-Pro-Leu-Gly-Leu-Dap(Dnp)-Ala-Arg-NH2 as substrate at 10 uM incubated for 2 hrs prior to testing measured for 15 mins by fluorometric analysis relative to control
Decide by inhibition: equal to or exceeding 20% means y, less means n.

CC(=O)Nc1ccc(Oc2ccc([S@@+]([O-])C[C@@H]3CS3)cc2)cc1    y
CC(=O)Nc1ccc(Oc2ccc([S+]([O-])C[C@H]3CS3)cc2)cc1 (single isomer, unassigned)    y
COc1ccc(S(=O)(=O)N(CC(=O)NO)CC(C)C)cc1    y
CC(=O)Nc1ccc(Oc2ccc([S+]([O-])C[C@@H]3CS3)cc2)cc1 (single isomer, unassigned)    n
Nc1ccc(Oc2ccc(S(=O)(=O)CC3CS3)cc2)cc1 (racemic)    y

Read the next record carefully.
Data request: Would you say "CC(=O)Nc1ccc(Oc2ccc(S(=O)(=O)C[C@H]3CS3)cc2)cc1" shows inhibition at minimum 20%?
Data returned: y
